The reported numbers originate from the supplement of paper PMC11061612.

- Test system: Saos-2 (Osteosarcoma)
- EXPERIMENT DESCRIPTION: Bliss excess, mean over the matrix (fraction); higher = more synergy
# Bliss excess per entry
ENDPOINT LABEL: Bliss excess

molecule="C=CCn1c(=O)c2cnc(Nc3ccc(N4CCN(C)CC4)cc3)nc2n1-c1cccc(C(C)(C)O)n1 [AZD1775] + C[C@@H]1COCCN1C2=NC(=NC(=C2)C3(CC3)[S@](=N)(=O)C)C4=C5C=CNC5=NC=C4 [AZD6738] (first compound max 1 µM, partner max 10 µM)" endpoint_label="Bliss excess" observed_value=0.0071
molecule="CC1(C)CCC(CN2CCN(c3ccc(C(=O)NS(=O)(=O)c4ccc(NCC5CCOCC5)c([N+](=O)[O-])c4)c(Oc4cnc5[nH]ccc5c4)c3)CC2)=C(c2ccc(Cl)cc2)C1 [Venetoclax] + C[C@@H]1COCCN1C2=NC(=NC(=C2)C3(CC3)[S@](=N)(=O)C)C4=C5C=CNC5=NC=C4 [AZD6738] (first compound max 1 µM, 7x7, partner max 10 µM)" endpoint_label="Bliss excess" observed_value=-0.0316

====

- Test system: YT (Other Blood Carcinomas)
- EXPERIMENT DESCRIPTION: combination Emax (second highest fraction inhibited in the dose matrix, 72 h); higher = more inhibition; extreme values may be limits of the assay
# combination Emax listing for each entry below
ENDPOINT LABEL: combination Emax

molecule="CC1(C)CCC(CN2CCN(c3ccc(C(=O)NS(=O)(=O)c4ccc(NCC5CCOCC5)c([N+](=O)[O-])c4)c(Oc4cnc5[nH]ccc5c4)c3)CC2)=C(c2ccc(Cl)cc2)C1 [Venetoclax] + COc1cc(Nc2ncc3c(n2)-c2ccc(Cl)cc2C(c2c(F)cccc2OC)=NC3)ccc1C(=O)O [Alisertib] (first compound max 1 µM, 7x7, partner max 10 µM)" observed_value=0.555
molecule="C=CCn1c(=O)c2cnc(Nc3ccc(N4CCN(C)CC4)cc3)nc2n1-c1cccc(C(C)(C)O)n1 [AZD1775] + O=C(c1cc(Cc2n[nH]c(=O)c3ccccc23)ccc1F)N1CCN(C(=O)C2CC2)CC1 [Olaparib] (first compound max 1 µM, partner max 10 µM)" observed_value=0.902
molecule="NC1(C(=O)N[C@@H](CCO)c2ccc(Cl)cc2)CCN(c2ncnc3[nH]ccc23)CC1 [Capivasertib] + C[C@@H]1COCCN1C2=NC(=NC(=C2)C3(CC3)[S@](=N)(=O)C)C4=C5C=CNC5=NC=C4 [AZD6738] (first compound max 10 µM, 7x7, partner max 10 µM)" observed_value=0.838

====

// values below are reported combination Emax
- System: SK-UT-1 (Other Solid Carcinomas)
- EXPERIMENT DESCRIPTION: combination Emax (second highest fraction inhibited in the dose matrix, 72 h); higher = more inhibition; extreme values may be limits of the assay
ENDPOINT LABEL: combination Emax

molecule="NC1(C(=O)N[C@@H](CCO)c2ccc(Cl)cc2)CCN(c2ncnc3[nH]ccc23)CC1 [Capivasertib] + CCN(CCO)CCCOc1ccc2c(Nc3cc(CC(=O)Nc4cccc(F)c4)[nH]n3)ncnc2c1 [AZD2811] (first compound max 10 µM, 7x7, partner max 1 µM)" endpoint_label="combination Emax" observed_value=0.522
molecule="CC1(C)CCC(CN2CCN(c3ccc(C(=O)NS(=O)(=O)c4ccc(NCC5CCOCC5)c([N+](=O)[O-])c4)c(Oc4cnc5[nH]ccc5c4)c3)CC2)=C(c2ccc(Cl)cc2)C1 [Venetoclax] + CCN(CCO)CCCOc1ccc2c(Nc3cc(CC(=O)Nc4cccc(F)c4)[nH]n3)ncnc2c1 [AZD2811] (first compound max 1 µM, 7x7, partner max 1 µM)" endpoint_label="combination Emax" observed_value=0.561
molecule="O=C(c1cc(Cc2n[nH]c(=O)c3ccccc23)ccc1F)N1CCN(C(=O)C2CC2)CC1 [Olaparib] + CC1(C)CCC(CN2CCN(c3ccc(C(=O)NS(=O)(=O)c4ccc(NCC5CCOCC5)c([N+](=O)[O-])c4)c(Oc4cnc5[nH]ccc5c4)c3)CC2)=C(c2ccc(Cl)cc2)C1 [Venetoclax] (first compound max 10 µM, 7x7, partner max 1 µM)" endpoint_label="combination Emax" observed_value=0.162
molecule="NC1(C(=O)N[C@@H](CCO)c2ccc(Cl)cc2)CCN(c2ncnc3[nH]ccc23)CC1 [Capivasertib] + C[C@@H]1COCCN1C2=NC(=NC(=C2)C3(CC3)[S@](=N)(=O)C)C4=C5C=CNC5=NC=C4 [AZD6738] (first compound max 10 µM, 7x7, partner max 10 µM)" endpoint_label="combination Emax" observed_value=0.829
molecule="C=CCn1c(=O)c2cnc(Nc3ccc(N4CCN(C)CC4)cc3)nc2n1-c1cccc(C(C)(C)O)n1 [AZD1775] + O=C(c1cc(Cc2n[nH]c(=O)c3ccccc23)ccc1F)N1CCN(C(=O)C2CC2)CC1 [Olaparib] (first compound max 1 µM, partner max 10 µM)" endpoint_label="combination Emax" observed_value=0.625
molecule="CN(C)CCCOc1ccc(-c2ccc3ncc4c(c3c2)n(C2CCOCC2)c(=O)n4C)cn1 [AZD0156] + CCN(CCO)CCCOc1ccc2c(Nc3cc(CC(=O)Nc4cccc(F)c4)[nH]n3)ncnc2c1 [AZD2811] (first compound max 1 µM, 7x7, partner max 1 µM)" endpoint_label="combination Emax" observed_value=0.264
molecule="COc1nnc2ccc(N3CCC(c4ccc(OCCN5CCN(C)C(=O)[C@H]5C)cc4)CC3)nn12 [AZD5153] + Cn1cnc2c(F)c(Nc3ccc(Br)cc3Cl)c(C(=O)NOCCO)cc21 [Selumetinib] (first compound max 1 µM, 7x7, partner max 10 µM)" endpoint_label="combination Emax" observed_value=0.486

====

- Test system: NCI-H1688 (Small Cell Lung Carcinoma)
- EXPERIMENT DESCRIPTION: Bliss excess, mean over the matrix (fraction); higher = more synergy
Reported Bliss excess values follow for various molecules
ENDPOINT LABEL: Bliss excess

molecule="Cc1c2c(nn1C)CSCc1cc(n(C)n1)CSc1cc(c3ccccc3c1)OCCCc1c(C(=O)O)n(C)c3c-2c(Cl)ccc13 [AZD5991] + CC1(C)CCC(CN2CCN(c3ccc(C(=O)NS(=O)(=O)c4ccc(NCC5CCOCC5)c([N+](=O)[O-])c4)c(Oc4cnc5[nH]ccc5c4)c3)CC2)=C(c2ccc(Cl)cc2)C1 [Venetoclax] (first compound max 1 µM, 7x7, partner max 1 µM)" observed_value=0.105
molecule="CN(C)CCCOc1ccc(-c2ccc3ncc4c(c3c2)n(C2CCOCC2)c(=O)n4C)cn1 [AZD0156] + C[C@@H]1COCCN1C2=NC(=NC(=C2)C3(CC3)[S@](=N)(=O)C)C4=C5C=CNC5=NC=C4 [AZD6738] (first compound max 1 µM, 7x7, partner max 10 µM)" observed_value=-0.0004
molecule="Cc1cc2ncnn2cc1Nc1ncc2c(n1)n(C1CCOCC1)c(=O)n2C [AZD7648] + CN(C)CCCOc1ccc(-c2ccc3ncc4c(c3c2)n(C2CCOCC2)c(=O)n4C)cn1 [AZD0156] (first compound max 10 µM, 7x7, partner max 1 µM)" observed_value=0.0029

====

- System: SK-UT-1 (Other Solid Carcinomas)
- EXPERIMENT DESCRIPTION: combination Emax (second highest fraction inhibited in the dose matrix, 72 h); higher = more inhibition; extreme values may be limits of the assay
ENDPOINT LABEL: combination Emax

molecule="Cc1c2c(nn1C)CSCc1cc(n(C)n1)CSc1cc(c3ccccc3c1)OCCCc1c(C(=O)O)n(C)c3c-2c(Cl)ccc13 [AZD5991] + CCN(CCO)CCCOc1ccc2c(Nc3cc(CC(=O)Nc4cccc(F)c4)[nH]n3)ncnc2c1 [AZD2811] (first compound max 1 µM, 7x7, partner max 1 µM)" endpoint_label="combination Emax" observed_value=0.367
molecule="C[C@@H](Oc1cc(-c2cnn(C3CCNCC3)c2)cnc1N)c1c(Cl)ccc(F)c1Cl [Crizotinib] + CC1=C(C(=CC=C1)Cl)NC(=O)C2=CN=C(S2)NC3=CC(=NC(=N3)C)N4CCN(CC4)CCO [Dasatinib] (first compound max 10 µM, 7x7, partner max 2 µM)" endpoint_label="combination Emax" observed_value=0.454
molecule="Cc1cc2ncnn2cc1Nc1ncc2c(n1)n(C1CCOCC1)c(=O)n2C [AZD7648] + O=C(c1cc(Cc2n[nH]c(=O)c3ccccc23)ccc1F)N1CCN(C(=O)C2CC2)CC1 [Olaparib] (first compound max 10 µM, 7x7, partner max 10 µM)" endpoint_label="combination Emax" observed_value=0.158
molecule="CN(CCO)CC[C@H](CSc1ccccc1)Nc1ccc(S(=O)(=O)NC(=O)c2ccc(N3CCC([C@@H](O)c4ccccc4-c4ccc(Cl)cc4)CC3)cc2)cc1S(=O)(=O)C(F)(F)F [AZD4320] + C1CN(CCC1(C(=O)N[C@@H](CCO)C2=CC=C(C=C2)Cl)N)C3=NC=NC4=C3C=CN4 [Capivasertib] (first compound max 1 µM, 7x7, partner max 3 µM)" endpoint_label="combination Emax" observed_value=0.226
